Provide the recorded t ½ for the entries that follow.
system: T1, human 4Ig-B7H3 (B7H3-4Ig-His) (human, UniProt Q5ZPR3 29-466)
T1 construct: Recombinant His-tagged protein immobilised on a CM5 chip; also called 41g-B7H3; human 4Ig-B7-H3 (dominant isoform); not shown: His tag
T1 sequence: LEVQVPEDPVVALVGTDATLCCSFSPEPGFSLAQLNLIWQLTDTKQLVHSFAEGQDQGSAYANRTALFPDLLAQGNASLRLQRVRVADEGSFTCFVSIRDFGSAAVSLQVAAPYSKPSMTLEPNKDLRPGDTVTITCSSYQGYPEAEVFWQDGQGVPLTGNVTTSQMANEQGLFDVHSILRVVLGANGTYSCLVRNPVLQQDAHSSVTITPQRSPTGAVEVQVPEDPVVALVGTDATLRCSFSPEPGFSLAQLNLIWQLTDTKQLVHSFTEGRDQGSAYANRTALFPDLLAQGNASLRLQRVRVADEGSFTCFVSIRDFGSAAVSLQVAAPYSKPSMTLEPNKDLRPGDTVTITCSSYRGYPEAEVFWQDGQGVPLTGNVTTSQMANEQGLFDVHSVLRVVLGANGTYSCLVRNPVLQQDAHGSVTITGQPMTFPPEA
assay.comment: SPR
Supply the numeric figure in h, leaving out any unit text.

Entry under test: 175Lu-DTPA-8H9-antibody (CAR3) (antibody, mouse IgG1, kappa, V domains shown, p-SCN-Bn-CHX-A″-DTPA conjugated (CAR 3 per antibody), labelled with cold lutetium-175; sites not stated) VH: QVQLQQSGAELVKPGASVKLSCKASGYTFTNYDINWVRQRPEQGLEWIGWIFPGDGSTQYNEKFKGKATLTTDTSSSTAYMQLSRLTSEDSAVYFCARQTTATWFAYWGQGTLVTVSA VL: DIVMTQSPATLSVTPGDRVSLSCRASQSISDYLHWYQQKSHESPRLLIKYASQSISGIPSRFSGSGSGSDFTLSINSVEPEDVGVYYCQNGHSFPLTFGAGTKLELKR . Its t ½ was 0.811

Entry under test: 127I-8H9-antibody P76501A (antibody, mouse IgG1, kappa, V domains shown, labelled with iodine-127; sites not stated) VH: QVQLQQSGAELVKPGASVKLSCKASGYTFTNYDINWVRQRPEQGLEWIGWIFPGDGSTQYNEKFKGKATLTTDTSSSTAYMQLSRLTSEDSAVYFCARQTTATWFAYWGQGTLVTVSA VL: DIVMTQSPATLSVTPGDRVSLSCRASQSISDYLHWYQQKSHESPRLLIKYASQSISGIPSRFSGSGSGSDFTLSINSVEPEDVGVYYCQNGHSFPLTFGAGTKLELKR . Its t ½ was 4.39

Entry under test: 175Lu-DTPA-8H9-antibody (CAR1.4) (antibody, mouse IgG1, kappa, V domains shown, p-SCN-Bn-CHX-A″-DTPA conjugated (CAR 1.4 per antibody), labelled with cold lutetium-175; sites not stated) VH: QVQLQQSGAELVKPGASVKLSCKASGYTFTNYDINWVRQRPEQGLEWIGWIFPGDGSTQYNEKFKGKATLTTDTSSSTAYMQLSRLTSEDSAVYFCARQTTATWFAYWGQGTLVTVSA VL: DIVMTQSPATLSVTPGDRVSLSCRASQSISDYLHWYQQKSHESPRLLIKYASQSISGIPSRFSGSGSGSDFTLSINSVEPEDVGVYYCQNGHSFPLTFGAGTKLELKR . Its t ½ was 1.26

Entry under test: 175Lu-DTPA-8H9-antibody (CAR6.1) (antibody, mouse IgG1, kappa, V domains shown, p-SCN-Bn-CHX-A″-DTPA conjugated (CAR 6.1 per antibody), labelled with cold lutetium-175; sites not stated) VH: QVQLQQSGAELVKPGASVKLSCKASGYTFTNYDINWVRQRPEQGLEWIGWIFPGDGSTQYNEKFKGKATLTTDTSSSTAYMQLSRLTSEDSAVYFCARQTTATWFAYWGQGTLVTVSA VL: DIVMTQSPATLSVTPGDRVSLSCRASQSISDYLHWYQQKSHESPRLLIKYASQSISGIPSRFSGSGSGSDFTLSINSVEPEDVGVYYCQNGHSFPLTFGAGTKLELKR . Its t ½ was 0.4
